# Tested on: thymidylate synthase (TS) protein
# experimental_details: Immunoblot analysis of TS protein (free and ITC-bound), Odyssey quantitation
# Type: cell-based, human
# details: RKO cells, ssiRNA 1 nM, 48 hr; normalized to free TS protein in mock-transfected cells (LF2000) set to 100%; mean ± S.D., 6 experiments
[5FU] = 5-fluorouracil base, d[5FU] 5-fluoro-2'-deoxyuridine (FdU); d = 2'-deoxy (DNA); r = 2'-OH (RNA)
quantity: Free TS (%)
I only need the number, in %, no unit after it.

Give Free TS (%) (thymidylate synthase (TS) protein) of the following substance: Mis-FdU/dA: control, non-targeted ssiRNA containing 5 FdU residues on the sense strand; SEQ ID NO: 21 and 22 (chain 1 GGAUACUGCCAAUCUCUAGGUUUUU; chain 2 CCUAGAGAUUGGCAGUAUCCAAAAA; chain 1: sugars from the 5' end r20 d5, [5FU] at 21, 22, 23, 24, 25, backbone not given here; chain 2: sugars from the 5' end r20 d5, backbone not given here)
89.5

Query TS6-2xF-dU/dA: ssiRNA with FdU on positions 16 and 18 of the antisense strand; SEQ ID NO: 17 and 18 (chain 1 GGAUAUUGUCAGUCUUUAGGUUUUU; chain 2 CCUAAAGACUGACAAUAUCCAAAAA; chain 1: sugars from the 5' end r20 d5, backbone not given here; chain 2: sugars from the 5' end rrrrrrrrrrrrrrrdrdrrddddd, [5FU] at 16, 18, backbone not given here) next
54.1

Same question, TS6-3xF-dU/dA: ssiRNA with FdU replacing U at positions 10, 16 and 18 in the antisense strand; SEQ ID NO: 15 and 16 (chain 1 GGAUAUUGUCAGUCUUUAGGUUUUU; chain 2 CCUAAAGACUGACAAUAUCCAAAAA; FdU at antisense positions 10, 16, 18, chemistry not fully specified) this time
73.6

Again, but for TS6-dA/FdU: TS-targeted ssiRNA with FdU modification of the 3′-end of antisense strand; SEQ ID NO: 11 and 12 (chain 1 GGAUAUUGUCAGUCUUUAGGAAAAA; chain 2 CCUAAAGACUGACAAUAUCCUUUUU; chain 1: sugars from the 5' end r20 d5, backbone not given here; chain 2: sugars from the 5' end r20 d5, [5FU] at 21, 22, 23, 24, 25, backbone not given here)
48.0

And for TS6-dU/dA: unmodified TS-targeted ssiRNA, 5 dU on 3′-end of sense strand, 5 dA on 3′-end of antisense strand; SEQ ID NO: 3 and 4 (sense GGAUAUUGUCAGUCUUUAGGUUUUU; antisense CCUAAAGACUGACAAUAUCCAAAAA; sense: sugars from the 5' end r20 d5, backbone and T or U not given here; antisense: sugars from the 5' end r20 d5, backbone not given here) ?
22.6
